Every entry's value here was drawn from ChEMBL document CHEMBL3785019.

- Experimental details: Cytotoxicity against human GES-1 cells after 48 hrs by MTT assay
- Format: cell-based
- Measurement conditions: GES1, 48 h
Experimental readout: IC50

Compound	Value
O=C(CCl)N1N=C(c2cc3ccccc3oc2=O)CC1c1ccccc1 (stereo not given)	2110 µM
CC(=O)Oc1ccccc1C1CC(C)=NN1C(=O)CN1CCC(O)CC1 (stereo not given)	2510 µM
CC1=NN(C(=O)CN2CCCCC2)C(c2ccccc2O)C1 (stereo not given)	1290 µM
CCCCN(CCCC)CC(=O)N1N=C(c2cc3ccccc3oc2=O)CC1c1ccccc1 (stereo not given)	1640 µM
CC(=O)Oc1ccccc1C1CC(C)=NN1C(=O)CCl (stereo not given)	1840 µM
